Reported In vivo catalytic efficiency values follow for various compounds
Assay: Microsomal conversion of myristicin, male rat liver microsomes
Type: in vitro ADME
Conditions: from myristicin; scaled Vmax/Km

{"compound": "COc1cc(/C=C/CO)cc2c1OCO2 [3′-Hydroxymyristicin, 3′-hydroxymyristicin]", "In vivo catalytic efficiency / ml/h/g tissue": 0.0119}
{"compound": "C=CC(O)c1cc(OC)c2c(c1)OCO2 (stereo not shown) [1′-Hydroxymyristicin, 1′-hydroxymyristicin]", "In vivo catalytic efficiency / ml/h/g tissue": 0.0177}
{"compound": "C=CCc1cc(O)c(O)c(OC)c1 [5-Allyl-2,3-dihydroxyanisole, 5-allyl-2,3-dihydroxyanisole]", "In vivo catalytic efficiency / ml/h/g tissue": 0.0827}
{"compound": "COc1cc(CC(O)CO)cc2c1OCO2 (stereo not shown) [2′,3′-Dihydroxymyristicin]", "In vivo catalytic efficiency / ml/h/g tissue": 0.0578}
